Biological target: SIX1 homeodomain (reference allele) (human, UniProt Q15475 108-198)
Sequence: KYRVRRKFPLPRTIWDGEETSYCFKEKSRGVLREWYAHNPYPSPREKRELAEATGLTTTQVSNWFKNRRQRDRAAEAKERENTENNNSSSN
Assay: universal protein binding microarray; Universal all-10-mer PBM (8x60K, AMADID 030236), 300 nM GST-tagged protein, Alexa Fluor 488 anti-GST; buffer, salt, pH and temperature not stated (as in Berger); high values mean tight binding
Settings: protein: ivt; tags: N-terminal GST; dsDNA, one strand shown
In all, about 33,000 sequences were measured (“e-score”: median about -0.053, highest 2% from about 0.38 on). Shown is part of a subset that was picked to be rich in the highest values.
Field: binding signal. Provide a value for each of the sequences that follow.
Give the figure together with its unit, number first.

Challenge: # binding signal lookup, item CGATACCA
Response given: 0.455 E-score

Challenge: # binding signal lookup, item CTATACCA
Response given: 0.245 E-score

Challenge: # binding signal lookup, item CAATACCA
Response given: 0.375 E-score

Challenge: # binding signal lookup, item AGATACCC
Response given: 0.468 E-score

Challenge: # binding signal lookup, item ATACTTCG
Response given: 0.304 E-score

Record binding signal for all entries; do not skip any.
1. ATACTGGA
2. ACATACCC

Response given:
1: 0.325 E-score; 2: 0.194 E-score

Record binding signal for all entries; do not skip any.
1. TAATACCA
2. GGTATAAA
3. CGATACCC
4. AGACGGTA

Response given:
0.37 E-score
0.286 E-score
0.492 E-score
0.196 E-score

---

Molecular target: SIX1 homeodomain (reference allele) (human, UniProt Q15475 108-198)
Sequence: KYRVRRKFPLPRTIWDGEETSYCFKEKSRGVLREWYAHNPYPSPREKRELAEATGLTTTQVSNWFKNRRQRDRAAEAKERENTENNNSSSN
Experiment: universal protein binding microarray; Universal all-10-mer PBM (8x60K, AMADID 030236), 300 nM GST-tagged protein, Alexa Fluor 488 anti-GST; buffer, salt, pH and temperature not stated (as in Berger); high values mean tight binding
Conditions: protein: ivt; tags: N-terminal GST; dsDNA, one strand shown
Whole data set: some 33,000 sequences, median “e-score” near -0.053, cut for the highest 2% near 0.38. This is one part of a sample in which the highest values are shown more often than they occur.
Field: binding signal. Provide a value for each of the sequences that follow.
Answers are plain numbers, in E-score.

Challenge: # binding signal lookup, item ATACTTGG
Response given: 0.199

Challenge: # binding signal lookup, item TATCCGAA
Response given: 0.334

Challenge: # binding signal lookup, item GTTATACA
Response given: 0.151

Challenge: # binding signal lookup, item ATGATACC
Response given: 0.489

Challenge: # binding signal lookup, item ACTAATCT
Response given: 0.192

Challenge: # binding signal lookup, item CTGATACA
Response given: 0.404

Challenge: # binding signal lookup, item CAATGATC
Response given: 0.31

Challenge: # binding signal lookup, item TAATGATA
Response given: 0.36

Record binding signal for all entries; do not skip any.
1. ATGATAAT
2. AGATACTA
3. TATCTGCA
4. ATGATACA
5. ATATCGAA
6. ATACGCAG
7. TAGATACA
8. CCGTAATA

Response given:
1: 0.168; 2: 0.316; 3: 0.284; 4: 0.449; 5: 0.393; 6: 0.314; 7: 0.25; 8: 0.205
